Please respond with reported fold change of affinity for every item in the list.
# measurement target: T1, Human CD137 ECD (human)
# T1 construct: also called 4-1BB
# T1 sequence (chain, as listed by the source limits assumed): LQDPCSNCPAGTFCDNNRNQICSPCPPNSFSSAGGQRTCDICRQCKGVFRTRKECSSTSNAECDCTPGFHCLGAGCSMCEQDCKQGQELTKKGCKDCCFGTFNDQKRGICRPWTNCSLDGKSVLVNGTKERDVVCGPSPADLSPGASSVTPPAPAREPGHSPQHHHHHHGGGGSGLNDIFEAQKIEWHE
# test details: single mutant vs template dBBDu183H
Dear colleague, please send the value followed by its unit.

Please give the measured fold change of affinity for this binder: H183/L072 VH A100P (antibody, name in Kabat numbering, V domains shown) VH: QVQLVESGGGLVQPGRSLRLSCAASGFTFSNAWMHWVRQAPGKGLEWVAQIKDKGNAYAAYYAPSVKGRFTISRDDSKNSIYLQMNSLKTEDTAVYYCHYVHYASPSTVLPAFGVDAWGQGTTVTVSS VL: DIVMTQSPLSLPVTPGEPASISCQASQELVHMNRNTYLHWYQQKPGQAPRLLIYKVSNRFPGVPDRFSGSGSGTDFTLKISRVEAEDVGVYYCAQGTSVPFTFGQGTKLEIK
0.3 fold

Now consider H183/L072 VH A56V (antibody, name in Kabat numbering, V domains shown) VH: QVQLVESGGGLVQPGRSLRLSCAASGFTFSNAWMHWVRQAPGKGLEWVAQIKDKGNAYVAYYAPSVKGRFTISRDDSKNSIYLQMNSLKTEDTAVYYCHYVHYASASTVLPAFGVDAWGQGTTVTVSS VL: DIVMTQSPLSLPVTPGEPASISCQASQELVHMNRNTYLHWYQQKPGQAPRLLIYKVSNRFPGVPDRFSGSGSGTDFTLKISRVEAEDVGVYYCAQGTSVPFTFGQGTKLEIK and answer again.
0.2 fold

Another binder to check: H183/L072 VH A60V (antibody, name in Kabat numbering, V domains shown) VH: QVQLVESGGGLVQPGRSLRLSCAASGFTFSNAWMHWVRQAPGKGLEWVAQIKDKGNAYAAYYVPSVKGRFTISRDDSKNSIYLQMNSLKTEDTAVYYCHYVHYASASTVLPAFGVDAWGQGTTVTVSS VL: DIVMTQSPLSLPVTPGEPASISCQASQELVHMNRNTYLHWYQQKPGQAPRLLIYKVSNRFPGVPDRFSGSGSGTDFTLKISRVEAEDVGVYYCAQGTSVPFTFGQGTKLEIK
0.9 fold
